- tested-target: human A2a receptor (Homo sapiens, UniProt P29274)
- Construct: purchased Perkin-Elmer RBHA2AM400UA; host or cells: HEK293
- Sequence (P29274 whole entry): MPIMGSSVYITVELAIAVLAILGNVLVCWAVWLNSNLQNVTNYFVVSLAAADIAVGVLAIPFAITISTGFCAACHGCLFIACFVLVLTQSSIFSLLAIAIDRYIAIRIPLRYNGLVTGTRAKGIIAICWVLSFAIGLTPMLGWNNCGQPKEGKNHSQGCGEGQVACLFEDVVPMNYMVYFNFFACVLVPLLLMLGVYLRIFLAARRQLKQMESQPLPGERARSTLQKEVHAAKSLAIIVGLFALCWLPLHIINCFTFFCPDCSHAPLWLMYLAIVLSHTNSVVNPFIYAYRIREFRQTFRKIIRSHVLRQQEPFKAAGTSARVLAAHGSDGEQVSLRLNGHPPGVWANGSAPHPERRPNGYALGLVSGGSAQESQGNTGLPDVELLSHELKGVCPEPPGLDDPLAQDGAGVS
- experimental-details: A2a receptor competition binding assay (Scintillation Proximity, tritiated radioligand)
- applied-conditions: membranes from HEK293 cells expressing the human A2a receptor; 0.5 nM tritiated ligand; SPA beads; one hour at room temperature; read-out: A2a EC50
I'd be grateful if you could share measured EC50 for these entries.
Give a bare numeral; the unit nM is implied.

Inquiry: State the recorded EC50 for this entry: COc1cccc2c1nc(N)n1nc(CN3CCN(Cc4ccc(C)cc4)C(=O)C3)nc21
Reply text: 7.7

Inquiry: State the recorded EC50 for this entry: Cc1noc2cc(F)c(N3CCN(Cc4nc5c6ccccc6nc(N)n5n4)CC3)cc12
Reply text: 343

Inquiry: State the recorded EC50 for this entry: COc1cccc2c1nc(N)n1nc(CN3CCN(c4noc(C(C)(C)C)n4)CC3C)nc21 (stereo not drawn)
Reply text: 22.2

Inquiry: State the recorded EC50 for this entry: COc1cc(CN2CCN(Cc3nc4c5cccc(OC)c5nc(N)n4n3)C(C)C2)cc(OC)c1 (stereo not drawn)
Reply text: 51.7

Inquiry: State the recorded EC50 for this entry: COc1cccc2c1nc(N)n1nc(CN3CCN(C)CC3c3ccccc3)nc21 (stereo not drawn)
Reply text: 190

Inquiry: State the recorded EC50 for this entry: COCCOc1ccc(N2CCN(Cc3nc4c5cc(F)cc(F)c5nc(N)n4n3)CC2)cc1
Reply text: 74.2

Inquiry: State the recorded EC50 for this entry: COc1cccc2c1nc(N)n1nc(CN3CCN(c4cccc5ccccc45)CC3C)nc21 (stereo not drawn)
Reply text: 11.5

Inquiry: State the recorded EC50 for this entry: COc1cccc2c1nc(N)n1nc(CN3CCN(c4cccc(C#N)c4)CC3C)nc21 (stereo not drawn)
Reply text: 18.8

Inquiry: State the recorded EC50 for this entry: COc1cccc2c1nc(N)n1nc(CN3CCN(Cc4ccc(F)c(C)c4)CC3C)nc21 (stereo not drawn)
Reply text: 15.6

----------
- tested-target: human A2a receptor (Homo sapiens, UniProt P29274)
- Construct: purchased Perkin-Elmer RBHA2AM400UA; host or cells: HEK293
- experimental-details: A2a receptor competition binding assay (Scintillation Proximity, tritiated radioligand)
- applied-conditions: membranes from HEK293 cells expressing the human A2a receptor; 0.5 nM tritiated ligand; SPA beads; one hour at room temperature; read-out: A2a EC50
measurement-kind: EC50 (nM)
Give a bare numeral; the unit nM is implied.

Inquiry: State the recorded EC50 for this entry: COc1cccc2c1nc(N)n1nc(CN3CCN(Cc4cccc(C)n4)CC3C)nc21 (stereo not drawn)
Reply text: 26.9

Inquiry: State the recorded EC50 for this entry: COc1cccc2c1nc(N)n1nc(CN3CCN(c4ccccc4C)CC3C)nc21 (stereo not drawn)
Reply text: 13.1

Inquiry: State the recorded EC50 for this entry: COc1cccc2c1nc(N)n1nc(CCN3CCN(c4ncc(F)cn4)CC3)nc21
Reply text: 7.8

Inquiry: State the recorded EC50 for this entry: COc1cccc2c1nc(N)n1nc(CN3CCN(Cc4ccc(N5CCCC5=O)cc4)CC3C)nc21 (stereo not drawn)
Reply text: 35.9

Inquiry: State the recorded EC50 for this entry: COc1cccc2c1nc(N)n1nc(CN3C(C)CN(c4ccc(F)cn4)CC3C)nc21 (stereo not drawn)
Reply text: 15

Inquiry: State the recorded EC50 for this entry: COc1cccc2c1nc(N)n1nc(CN3CCN(c4ccc(Cl)c(Cl)c4)CC3C)nc21 (stereo not drawn)
Reply text: 3.08

Inquiry: State the recorded EC50 for this entry: CC[C@@H]1CN(c2ccc(F)cc2)CCN1Cc1nc2c3cccc(OC)c3nc(N)n2n1
Reply text: 5.7

Inquiry: State the recorded EC50 for this entry: COc1cc(F)cc2c1nc(N)n1nc(CN3CCN(Cc4ccc(F)cc4)C(=O)C3)nc21
Reply text: 9.9

Inquiry: State the recorded EC50 for this entry: C[C@@H]1CN(c2ccc(F)cc2)CCN1Cc1nc2c3cccc(C#N)c3nc(N)n2n1
Reply text: 740
